Parameter: IC50. Scope: all listed entries.
Molecular target: Rat Fibroblast LOX (Rattus norvegicus, UniProt P16636)
Construct: Fibroblast LOX; endogenous in cells
Sequence (P16636 163-411): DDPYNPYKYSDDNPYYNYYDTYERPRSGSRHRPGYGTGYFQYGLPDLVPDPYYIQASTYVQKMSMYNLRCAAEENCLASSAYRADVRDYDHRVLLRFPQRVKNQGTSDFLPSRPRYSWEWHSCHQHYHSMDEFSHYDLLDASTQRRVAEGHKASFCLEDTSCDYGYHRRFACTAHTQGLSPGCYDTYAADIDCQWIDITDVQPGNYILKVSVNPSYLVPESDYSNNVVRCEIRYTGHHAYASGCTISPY
Experiment: Amine oxidase inhibition profile, rat fibroblast LOX
readout name: IC50 (µM)

1) NC/C=C(\F)CS(=O)(=O)c1ccccc1 [PXS-4787]; 4.57
2) NC/C=C(\F)C(F)(F)S(=O)(=O)c1ccccc1 [PXS-6302]; 8.57
3) N#CCCN [BAPN, β-aminoproprionitrile, reference compound]; 2.12

Source: paper PMC9500072
